Where do the numbers come from? From paper PMC7527217.

- TGT: recombinant human Bcl-2 (residues 10 to 203) (human, UniProt P10415 10-203)
- Sequence (P10415 10-203): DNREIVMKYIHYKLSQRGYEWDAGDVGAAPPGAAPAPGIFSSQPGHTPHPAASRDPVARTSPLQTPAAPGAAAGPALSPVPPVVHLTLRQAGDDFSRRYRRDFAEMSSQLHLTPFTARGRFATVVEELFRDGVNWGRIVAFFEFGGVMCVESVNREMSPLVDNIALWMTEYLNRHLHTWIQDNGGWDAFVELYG
- ASSAY: ITC
MEASURED_ATTRIBUTE: Kd (nM)
Your answer should be a plain number; it is taken to be in nM.

{"BINDER": "IEPTSPTIQVARTIRQIGDELDSDPHLN [trBax BH3 peptide]", "EXPERIMENTAL_VALUE": 3060}

Query binder follows.
// fetch Kd given entry PSSPTSEIGRHLAQLGDSYSVRFQNE [trBak BH3 peptide]
45
